Let's look at some compounds and their measured IC50.
ASSAY SYSTEM: Aurora A kinase (Homo sapiens)
Sequence (O14965 whole entry): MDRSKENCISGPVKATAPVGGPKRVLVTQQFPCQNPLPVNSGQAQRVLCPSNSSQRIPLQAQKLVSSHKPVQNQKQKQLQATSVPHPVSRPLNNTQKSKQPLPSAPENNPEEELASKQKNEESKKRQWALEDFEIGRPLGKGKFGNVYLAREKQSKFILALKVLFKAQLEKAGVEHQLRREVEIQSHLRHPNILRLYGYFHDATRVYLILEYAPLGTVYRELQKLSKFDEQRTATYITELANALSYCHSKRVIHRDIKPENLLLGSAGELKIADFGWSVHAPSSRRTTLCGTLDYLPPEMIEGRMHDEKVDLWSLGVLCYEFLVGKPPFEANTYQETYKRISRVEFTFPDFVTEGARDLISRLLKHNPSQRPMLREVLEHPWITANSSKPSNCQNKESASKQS
Respond numerically; units are nM and should not be typed.

NCCCNC(=O)c1ccc2c(c1)S/C(=C(/C(N)=O)c1nccc(C(F)(F)F)n1)N2 [Compound 65A] | 30

compound CN1CCN(CCC(=O)Nc2ccc3c(c2)N/C(=C(/C(N)=O)c2nccc(C(F)(F)F)n2)N3)CC1 [Compound 83A] , IC50 observed: 6

Form field IC50, entry NC(=O)/C(=C1\Nc2ccc(CCN3CCSCC3)cc2S1)c1nccc(C(F)(F)F)n1 [Compound 103A] : 20

Briefly, IC50 measured for NC(=O)/C(=C1\Nc2ccccc2S1)c1nccc(-c2ccccc2)n1 [Compound 20A] : 90
